TEST DESCRIPTION: Metabolic stability in human liver microsomes
Assay type: in vitro ADME
MEASUREMENT PARAMETERS: read-out: intrinsic clearance (CLint(liver))
READOUT LABEL: CLint scaled at 1 μM
Your reply should be a number followed by the unit it is expressed in.

Recorded result, COc1ccc2c3c1O[C@@H]1[C@@]4(OCCOc5ccc6c7c5OC5C8(OC)CC[C@@]9(CC8[C@](C)(O)C(C)(C)C)[C@@H](C6)N(CC6CC6)CCC759)CC[C@@]5(C[C@@H]4[C@](C)(O)C(C)(C)C)[C@@H](C2)N(CC2CC2)CC[C@]315 (stereo in doubt) , CLint scaled at 1 μM: 15.2 mL/min/kg

###

TEST DESCRIPTION: Metabolic stability in SD rat liver microsomes
Format: in vitro ADME
MEASUREMENT PARAMETERS: 1 μM, NADPH, 37° C., up to 60 min, read-out: half-life (T1/2)
READOUT LABEL: half-life at 1 μM (min)
Provide only the numeric value, understood in min.

Recorded result, COc1ccc2c3c1O[C@@H]1[C@@]4(OCCOc5ccc6c7c5OC5C8(OC)CC[C@@]9(CC8[C@](C)(O)C(C)(C)C)[C@@H](C6)N(CC6CC6)CCC759)CC[C@@]5(C[C@@H]4[C@](C)(O)C(C)(C)C)[C@@H](C2)N(CC2CC2)CC[C@]315 (stereo in doubt) [Compound D] , half-life at 1 μM: 87.6

###

TEST DESCRIPTION: Bidirectional permeability in Caco-2 cells
Type: in vitro ADME
MEASUREMENT PARAMETERS: human, Caco-2, Caco-2, B to A direction, 120 minutes; read-out: mean apparent permeability coefficient (Papp), B to A
READOUT LABEL: Papp B→A at 120 min, 2 μM

CO[C@]12CC[C@@]3(C[C@@H]1[C@](C)(O)C(C)(C)C)[C@H]1Cc4ccc(OCCOc5ccc6c7c5O[C@H]5C78CCN(CC7CC7)[C@H](C6)[C@]86CC[C@]5(OC)[C@@H]([C@](C)(O)C(C)(C)C)C6)c5c4[C@@]3(CCN1CC1CC1)[C@@H]2O5 [ORP-101, reference compound]: < 1.3 nm/s

Now look at this one.
Recorded result, COc1ccc2c3c1O[C@@H]1[C@@]4(OCCOc5ccc6c7c5OC5C8(OC)CC[C@@]9(CC8[C@](C)(O)C(C)(C)C)[C@@H](C6)N(CC6CC6)CCC759)CC[C@@]5(C[C@@H]4[C@](C)(O)C(C)(C)C)[C@@H](C2)N(CC2CC2)CC[C@]315 (stereo in doubt) , Papp B→A at 120 min, 2 μM: < 4 nm/s

###

TEST DESCRIPTION: Metabolic stability in SD rat liver microsomes
Type: in vitro ADME
MEASUREMENT PARAMETERS: read-out: intrinsic clearance (CLint(liver))
READOUT LABEL: CLint scaled at 1 μM (mL/min/kg)
Provide only the numeric value, understood in mL/min/kg.

Recorded result, COc1ccc2c3c1O[C@@H]1[C@@]4(OCCOc5ccc6c7c5OC5C8(OC)CC[C@@]9(CC8[C@](C)(O)C(C)(C)C)[C@@H](C6)N(CC6CC6)CCC759)CC[C@@]5(C[C@@H]4[C@](C)(O)C(C)(C)C)[C@@H](C2)N(CC2CC2)CC[C@]315 (stereo in doubt) [Compound D] , CLint scaled at 1 μM: 28.5
